Examples of molecules with documented growth follow.
Tested on: A549/ATCC NSCLC
Run Description: NCI-60 one-dose screen, 48 h (100 = growth as untreated, 0 = no growth, -100 = all killed)
Condition Notes: 10 µM
The panel holds about 83,000 compounds, 20% with a hit somewhere; the sample as a whole holds those more often.
Number in %, nothing else.

N=c1c(C(=O)OCc2ccccc2)ncc(CCl)n1O | 101

Problem: Would you kindly share the measured growth for CNS(=O)(=O)c1ccc(Cl)c(Cl)c1 ?
Result: 104

Problem: I'd like to know its growth. The molecule in question is NC(N)=Nc1cc2ccccc2c2ccccc12
Result: 27.8

Problem: Reported growth for Cc1cc(/C=C/c2ccc3cc(N(C)C)ccc3[n+]2C)c(C)n1-c1ccccc1 : what is it?
Result: -44.9

Problem: Consider the molecule CCCCCC(C)(CC(=O)O)CC(=O)O and give its measured growth.
Result: 101

Problem: GET /values?readout=growth&item= O=C(Cc1ccc(OCc2ccccc2)cc1)NCc1ccc2c(c1)OCO2
Result: 58.2

Problem: So what's the measured growth for this one? COc1cccc(/C=N/NC(=S)NC2CC3CCC2C3)c1O (configuration not stated)
Result: 43.9

Problem: # growth lookup, item O=[N+]([O-])c1cccc(C(F)(F)F)c1
Result: 94.7

Problem: Give the measured growth of Cc1ccc(C)n1-c1ccsc1C(=O)NNC(=O)C(Cl)Cl .
Result: 102

Problem: I would be grateful if you could share the reported growth for O=C(N/N=C/c1ccccc1O)Nc1nn[nH]n1 .
Result: 108

Problem: Give its growth value. Item: CN(C)CCN(Cc1ccccc1)c1ccccc1
Result: 106

Problem: Tell me the measured growth of COc1cc(CCN=Cc2ccccc2O)c([N+](=O)[O-])cc1OC , please.
Result: 102

----------
Tested on: HT29 colon
Run Description: NCI-60 one-dose screen, 48 h (100 = growth as untreated, 0 = no growth, -100 = all killed)
Condition Notes: 10 µM
Compounds without any hit were thinned out: in the full panel of roughly 83,000, 20% have a hit.
Property Name: growth (%)
Express it in %; write the number only.

Reference set (5 entries):
O=C(/C(=N/O)c1ccccc1)c1ccccc1 | 117
COc1ccc(-c2cc3c(nn2)-c2ccccc2C3=O)cc1 | -24.8
Nc1ncnc2[nH]ncc12 | 12.3
Cc1ccc(/C(C#N)=C/c2ccc3c(c2)OCO3)cc1 | 37.1
O=S(=O)(O)c1ccc(Cl)c(Cl)c1 | 109

Problem: Please provide the recorded growth for CCOc1ccc(/C=C/C(=O)c2ccccc2)cc1 , tested on HT29 colon.
Result: 96.1

Problem: Provide value of growth for this record tested with HT29 colon: COc1ncnc2c1cnn2C
Result: 107

----------
Tested on: 786-0 renal
Run Description: NCI-60 one-dose screen, 48 h (100 = growth as untreated, 0 = no growth, -100 = all killed)
Condition Notes: 10 µM
Compounds without any hit were thinned out: in the full panel of roughly 83,000, 20% have a hit.
The reader will find reported growth values listed item by item below.
Write the number in % without appending the unit.

Problem: Endpoint output: growth of Cc1cc2nc(CC(=O)c3ccccc3)c(=O)[nH]c2cc1C . Value?
Result: 98.3

Problem: Endpoint output: growth of CCOC(=O)c1coc(C(=O)OCC)c1C(=O)OCC . Value?
Result: 108

Problem: Item under review: COc1ccc2c(NCCCCCCCCNc3c4ccccc4nc4cc(OC)ccc34)c3ccccc3nc2c1 . Reported growth?
Result: -100

Problem: Consider the compound Cc1cc(OCCO)cc(C)c1Cl and give its measured growth.
Result: 97.3

Problem: Which growth is reported for this compound? CC1=NN(c2ccccc2)C(=O)/C1=C\N1CC(=O)NC1=S
Result: 104

Problem: Fill in the blank: the reported growth of O=c1[nH]cc(Cl)cc1O is ____.
Result: 101

Problem: Please give the measured growth for this compound: COC(=O)CCCCC1=CCC2C(=O)C=C(O)C2C1 (configuration not stated)
Result: 99.9

Problem: I would be grateful if you could share the reported growth for Cc1ccccc1N=C(c1ccccc1)C1C(=O)c2ccccc2C1=O .
Result: 88.6

Problem: Data request, read-out growth, for CC1OC(Oc2c(-c3ccc(O)c(O)c3)oc3cc(O)cc(O)c3c2=O)C(O)C(O)C1O (configuration not stated)
Result: 108

Problem: Entry CC(C)(O)C#CC#CC(C)(C)O : reported growth = ?
Result: 106

Problem: What value of growth has been reported for the following compound? CC(=O)Nc1ccc(NC(C)=O)c2c1C(=O)c1ccccc1C2=O
Result: 91

Problem: Field request: growth | item: CC(C)OC(=O)c1cc(NC(=S)OC(C)C)ccc1Cl
Result: 82.2

This collection of values is drawn from PubChem BioAssay (NCI).
